# MEASURED ON: human PAC1 (Homo sapiens, UniProt P41586)
# Sequence (P41586 21-468): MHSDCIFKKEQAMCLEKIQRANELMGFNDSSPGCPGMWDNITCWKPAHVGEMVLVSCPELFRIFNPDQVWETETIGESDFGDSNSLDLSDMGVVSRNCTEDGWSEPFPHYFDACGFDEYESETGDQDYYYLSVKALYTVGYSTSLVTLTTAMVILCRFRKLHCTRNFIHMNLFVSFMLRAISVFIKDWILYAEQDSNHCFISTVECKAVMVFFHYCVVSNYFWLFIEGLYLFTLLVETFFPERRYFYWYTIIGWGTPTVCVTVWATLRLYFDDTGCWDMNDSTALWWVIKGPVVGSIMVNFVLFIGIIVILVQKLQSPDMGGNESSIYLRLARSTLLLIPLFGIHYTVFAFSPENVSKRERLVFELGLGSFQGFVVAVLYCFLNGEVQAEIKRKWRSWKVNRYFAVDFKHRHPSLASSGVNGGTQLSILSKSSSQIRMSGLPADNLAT
# METHOD DESCRIPTION: Filter binding assay, membranes of cells transiently transfected with human PAC1, 125I-labeled PACAP-27 tracer (Table 2)
# Parameters: expressed in transfected cells
# MEASUREMENT SETUP: read-out: Human PAC1 Receptor Binding
# Experimental: For this assay, the solutions and equipment include: Presoak solution: 0.5% Polyethyleneamine in Aqua dest. Buffer for flushing filter plates: 25 mM HEPES pH 7.4 Blocking buffer: 25 mM HEPES pH 7.4; 0.2% protease free BSA Assay buffer: 25 mM HEPES pH 7.4; 0.5% protease free BSA Dilution and assay plate: PS-Microplate, U form Filtration Plate Multiscreen FB Opaque Plate; […] Type B Glasfiber filter In order to prepare the filter plates, aspirate the presoak solution by vacuum filtration. […]
Where no end group is shown, it is not given here. [ ]: non-standard residue; d: D form. The star is where a group is joined. Hexanoyl = CCCCCC(=O)*; Aib = CC(C)(N)C(=O)O
For each entry below, report its IC50 value.

Entry Hexanoyl-HSDAVFTKNYTRLRKQVAAKKYLQSIKNKRYGGPSSGAPPPS [Agonist P160] : reported IC50 = ?
262 nM

Dear colleague, I am looking for the recorded IC50 of the following substance: Hexanoyl-HSDAVFTDNYTRLRKQLAAKKYLQSIKNKRYGGPSSGAPPPS [Agonist P290]
209 nM

Consider the substance Hexanoyl-HSDAVFTDNYTRL[Aib]KQLAAK[Aib]YLQSIKNKRYGGPSSGAPPPS [Agonist P241] and give its measured IC50.
> 25000 nM

What value of IC50 has been reported for the following substance? Hexanoyl-HSDAVFTDNYTRLRKQVAAKKLLQSIKNKRYGGPSSGAPPPS [Agonist P132]
1020 nM

Fill in: IC50 of Hexanoyl-HSDAVFTDNYTRL[Aib]KQVAAAKYLQSIKNKRYGGPSSGAPPPS [Agonist P260] is ___
> 3000 nM

Can you share its IC50? I mean this substance: Hexanoyl-HSDAVFTDNYTRLRKQVAAKKYLQS[Aib]KNKRYGGPSSGAPPPS [Agonist P188]
700 nM

IC50 for Hexanoyl-HSDAVFTDNYTRLQKQVAAQKYLQSIKNKRYGGPSSGAPPPS [Agonist P252] ?
> 25000 nM

If you can, please state the reported IC50 value of Hexanoyl-HSDAVFTDNYTRLRKQVAAKKYFQSIKNKRYGGPSSGAPPPS [Agonist P231] .
300 nM

For Hexanoyl-HSDAVFTDNYTRLRRQVAAKKYLQSIKNKRYGGPSSGAPPPS [Agonist P176] , what is its reported IC50?
227 nM

Look up IC50 for this substance: Hexanoyl-HSDAVFTDNYTRL[Aib]KQVAAQKYLQSIKNKRYGGPSSGAPPPS [Agonist P243]
> 25000 nM

Which IC50 value belongs to Hexanoyl-HSDAVFTDNYTRLRKQVAAKKYLQSWKNKRYGGPSSGAPPPS [Agonist P110] ?
321 nM

Can you look up the measured IC50 of Hexanoyl-HSDAVFTDNYTRLRKQVAAQKYLQSIKNKRYGGPSSGAPPPS [Agonist P150] for me?
916 nM

Requested field: IC50. Item: Hexanoyl-HSDAVFTDNYTRLRKQVAAKKYLQQIKNKRYGGPSSGAPPPS [Agonist P124]
264 nM

Dear colleague, I am looking for the recorded IC50 of the following substance: Hexanoyl-HSDAVFTDNYTRLR[Aib]QIAA[Aib]KYLQSIKNKRYGGPSSGAPPPS [Agonist P322]
> 25000 nM

Quick check: IC50 of Hexanoyl-HSDAVFTDNYTRLR[Aib]QVAAKKYLQSIKNKRYGGPSSGAPPPS [Agonist P168] ?
538 nM

# query: IC50 of entry Hexanoyl-HSDAVFTDNYTKLKKQVAAKKYLQSIKNKKYGGPSSGAPPPS [Agonist P103]
333 nM

Name the recorded IC50 for Hexanoyl-HSDAVFTDNYTRLLAQLALQKYLQSIKNKRYGGPSSGAPPPS [Agonist P195] .
139 nM
